// data source = the supplement of paper PMC10567573

B1: IMPA1 (parent)
chain: FIGEESVAAGEKSILTDNPTWIID

Variants of: B1
Experiment: protein stability index of a GFP-peptide fusion (GPS, HEK-293T) (PSI 1-6); higher = more stable;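 note: lentivirally expressed fusions sorted by FACS into six bins by GFP to DsRed ratio, PSI derived from sequencing read proportions per bin multiplied by bin number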
Conditions: c terminus: a fixed tail appended
Decision: protein stability index compared against 2; not below it gives True, below it gives False.

- Biosequence: "FIGEESVCAGEKSILTDNPTWIID"
  Discrete Label: "False"
- Biosequence: "FIGEESVAAGEKSILIDNPTWIID"
  Discrete Label: "False"
- Biosequence: "FIGGESVAAGEKSILTDNPTWIID"
  Discrete Label: "True"
- Biosequence: "FIGEESVAAGEKSILTDNPIWIID"
  Discrete Label: "False"

Next, consider the following variant.
Ask | I'd appreciate it if you could say whether FIGEESVAAGEKSILTDNVTWIID has protein stability index at least equal to 2.
Reply | True
